Just for reference, the supplement of paper PMC9732359 is where these values come from.

- Test protocol: protein stability index of a GFP-peptide fusion (yeast GPS) (PSI 1-4); higher = more stable; sorted into four equal gates, so the index is relative within each strain
- Run parameters: san1∆
Each entry below carries its recorded protein stability index.
In your answer, state the number alone without any accompanying words.

Entry sequence	protein stability index
LGNVDAFQLADGIHYIL [PRP8]	2.42

The recorded protein stability index for entry KSICFENCLNNDPEILK [SWI1] equals 2.83

The recorded protein stability index for entry KNYTTETDNEMNGNGKP [SIR3] equals 3.48

The recorded protein stability index for entry LAALNVWYGLSDGEDGH [SSN2] equals 3.04

The recorded protein stability index for entry EYMVQYIDEMYNHNDGG [RRI1] equals 3.21

The recorded protein stability index for entry PGNNIPYMNHKNTSSMD [GAL11] equals 2.16

The recorded protein stability index for entry DAKTSYPNEVLKFNHGN [REC8] equals 3.02

The recorded protein stability index for entry SKSENPVLSTIAFLVGL [SWI3] equals 2.26
